Overview of recorded viscosity for various compounds
Experiment: xn = mol fraction of the nth substance listed
Conditions: 313.15 K; 100 kPa; x1 = 0.9
Use mPa·s as the unit, but write only the number.

Worked examples, 3 compounds total:
CCCC[N+](CCCC)(CCCC)CCCC.[Cl-] + CC(C)C[C@H](N)C(=O)O
940
CCCC[N+](CCCC)(CCCC)CCCC.[Cl-] + O=C(O)[C@@H]1CCCN1
1051
CCCC[N+](CCCC)(CCCC)CCCC.[Cl-] + CC(C)[C@H](N)C(=O)O
800

Okay, now this compound:
Q) Fill blank: measured viscosity of the compound C[N+](C)(C)CCO.NCC(=O)[O-] + CO is ____.
A) 153.5

----------
Assay: xn = mol fraction of the nth substance listed
Conditions: 323.15 K; 100 kPa; x1 = 0.9
readout-kind: electrical conductivity (S/m)
Use S/m as the unit, but write only the number.

CCCC[N+](CCCC)(CCCC)CCCC.[Cl-] + O=C(O)[C@@H]1CCCN1
0.0612
CCCC[N+](CCCC)(CCCC)CCCC.[Cl-] + CC(C)[C@H](N)C(=O)O
0.059

Q) Fill blank: measured electrical conductivity of the compound CCCC[N+](CCCC)(CCCC)CCCC.[Cl-] + CC(C)C[C@H](N)C(=O)O is ____.
A) 0.027

Q) Fill blank: measured electrical conductivity of the compound CCCC[N+](CCCC)(CCCC)CCCC.[Cl-] + CC[C@H](C)[C@H](N)C(=O)O is ____.
A) 0.045

----------
Overview of recorded viscosity for various molecules
Assay: xn = mol fraction of the nth substance listed
Settings: 313.15 K; 101.3 kPa; x2 = 0; x1 = 0.0007203
Use mPa·s as the unit, but write only the number.

Worked examples, 3 molecules total:
CCCC[n+]1ccn(C)c1.[Br-] + N[C@@H](Cc1ccccc1)C(=O)O + O
0.67
CCCC[n+]1ccn(C)c1.[Br-] + N[C@@H](CO)C(=O)O + O
0.673
CCCC[n+]1ccn(C)c1.[Br-] + C[C@@H](O)[C@H](N)C(=O)O + O
0.674

Q) Fill blank: measured viscosity of the molecule CCCC[n+]1ccn(C)c1.[Br-] + NC(N)=NCCC[C@H](N)C(=O)O + O is ____.
A) 0.674

----------
Overview of recorded electrical conductivity for various molecules
Assay: xn = mol fraction of the nth substance listed
Settings: 333.15 K; 100 kPa; x1 = 0.9
Include the unit right after the number.

Worked examples, 3 molecules total:
CCCC[N+](CCCC)(CCCC)CCCC.[Cl-] + CC[C@H](C)[C@H](N)C(=O)O
0.0615 S/m
CCCC[N+](CCCC)(CCCC)CCCC.[Cl-] + CC(C)C[C@H](N)C(=O)O
0.0441 S/m
CCCC[N+](CCCC)(CCCC)CCCC.[Cl-] + O=C(O)[C@@H]1CCCN1
0.0869 S/m

Okay, now this molecule:
Q) Fill blank: measured electrical conductivity of the molecule CCCC[N+](CCCC)(CCCC)CCCC.[Cl-] + CC(C)[C@H](N)C(=O)O is ____.
A) 0.082 S/m

----------
Assay: xn = mol fraction of the nth substance listed
Details: 353.15 K; 100 kPa; x1 = 0.9
readout-kind: electrical conductivity
Include the unit right after the number.

Worked examples, 3 compounds total:
CCCC[N+](CCCC)(CCCC)CCCC.[Cl-] + CC(C)[C@H](N)C(=O)O
0.123 S/m
CCCC[N+](CCCC)(CCCC)CCCC.[Cl-] + CC(C)C[C@H](N)C(=O)O
0.0891 S/m
CCCC[N+](CCCC)(CCCC)CCCC.[Cl-] + O=C(O)[C@@H]1CCCN1
0.142 S/m

Okay, now this compound:
Q) Fill blank: measured electrical conductivity of the compound CCCC[N+](CCCC)(CCCC)CCCC.[Cl-] + CC[C@H](C)[C@H](N)C(=O)O is ____.
A) 0.105 S/m

----------
Overview of recorded electrical conductivity for various molecules
Assay: xn = mol fraction of the nth substance listed
Settings: 343.15 K; 100 kPa; x1 = 0.9
Use S/m as the unit, but write only the number.

CCCC[N+](CCCC)(CCCC)CCCC.[Cl-] + CC(C)C[C@H](N)C(=O)O
0.068
CCCC[N+](CCCC)(CCCC)CCCC.[Cl-] + O=C(O)[C@@H]1CCCN1
0.11
CCCC[N+](CCCC)(CCCC)CCCC.[Cl-] + CC[C@H](C)[C@H](N)C(=O)O
0.0789

Q) Fill blank: measured electrical conductivity of the molecule CCCC[N+](CCCC)(CCCC)CCCC.[Cl-] + CC(C)[C@H](N)C(=O)O is ____.
A) 0.0989

----------
Experiment: xn = mol fraction of the nth substance listed
Details: 323.15 K; 100 kPa; x1 = 0.9
Overview of recorded viscosity for various compounds
Use mPa·s as the unit, but write only the number.

Worked examples, 3 compounds total:
CCCC[N+](CCCC)(CCCC)CCCC.[Cl-] + CC(C)C[C@H](N)C(=O)O
517
CCCC[N+](CCCC)(CCCC)CCCC.[Cl-] + CC(C)[C@H](N)C(=O)O
460
C[N+](C)(C)CCO.NCC(=O)[O-] + CO
94.3

Q) Fill blank: measured viscosity of the compound CCCC[N+](CCCC)(CCCC)CCCC.[Cl-] + O=C(O)[C@@H]1CCCN1 is ____.
A) 534

----------
Assay: xn = mol fraction of the nth substance listed
Conditions: 313.15 K; 100 kPa; x1 = 0.9
Overview of recorded electrical conductivity for various compounds
Use S/m as the unit, but write only the number.

CCCC[N+](CCCC)(CCCC)CCCC.[Cl-] + CC(C)[C@H](N)C(=O)O
0.041
CCCC[N+](CCCC)(CCCC)CCCC.[Cl-] + CC[C@H](C)[C@H](N)C(=O)O
0.0263
CCCC[N+](CCCC)(CCCC)CCCC.[Cl-] + O=C(O)[C@@H]1CCCN1
0.0446

Okay, now this compound:
Q) Fill blank: measured electrical conductivity of the compound CCCC[N+](CCCC)(CCCC)CCCC.[Cl-] + CC(C)C[C@H](N)C(=O)O is ____.
A) 0.0149
